Test: self-splicing fitness, log relative to wild type (ln ratio); higher = more splicing; Tetrahymena group I intron in knt gene, E. coli kanamycin selection, DiMSum; sequences stand for … in CUCUCU…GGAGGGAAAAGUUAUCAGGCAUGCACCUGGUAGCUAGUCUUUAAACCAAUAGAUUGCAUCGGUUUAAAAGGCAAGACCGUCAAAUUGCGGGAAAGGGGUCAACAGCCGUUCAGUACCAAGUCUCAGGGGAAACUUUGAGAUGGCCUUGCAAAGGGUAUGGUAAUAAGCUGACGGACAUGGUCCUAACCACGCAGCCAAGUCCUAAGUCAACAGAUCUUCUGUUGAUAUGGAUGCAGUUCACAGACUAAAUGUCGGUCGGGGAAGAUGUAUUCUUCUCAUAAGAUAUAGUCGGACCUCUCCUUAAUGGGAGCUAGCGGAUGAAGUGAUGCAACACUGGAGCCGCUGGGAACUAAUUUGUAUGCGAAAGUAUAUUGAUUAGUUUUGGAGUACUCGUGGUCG;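 note: selection with 25 µg/mL kanamycin versus none on LB agar overnight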
Conditions: 30 °C
The following sequences are listed with their measured self-splicing fitness (ln) values.

{"Biopolymer Sequence": "ACCAAGCAAUAUUACGGUCG", "self-splicing fitness (ln)": -3.81}
{"Biopolymer Sequence": "UACCAGCAAUAUUACGCUCU", "self-splicing fitness (ln)": -0.618}
{"Biopolymer Sequence": "AACUAGCAAUAUUACGGCCU", "self-splicing fitness (ln)": -0.472}
{"Biopolymer Sequence": "UCGAAGCAAUAUUACGAGAU", "self-splicing fitness (ln)": -4.08}
{"Biopolymer Sequence": "ACACAGCAAUAUUACGCUAU", "self-splicing fitness (ln)": -2.81}
{"Biopolymer Sequence": "AUCCAGCAAUAUUACGUUCA", "self-splicing fitness (ln)": -1.02}
{"Biopolymer Sequence": "AGUCAGCAAUAUUACGUGCA", "self-splicing fitness (ln)": -0.269}
{"Biopolymer Sequence": "AUUGAGCAAUAUUACGGUAU", "self-splicing fitness (ln)": -2.06}
{"Biopolymer Sequence": "AUUGAGCAAUAUUACGCGUG", "self-splicing fitness (ln)": -2.28}
{"Biopolymer Sequence": "UUUGAGCAAUAUUACGUUGU", "self-splicing fitness (ln)": -2.68}
{"Biopolymer Sequence": "AUUAAGCAAUAUUACGACGC", "self-splicing fitness (ln)": -0.389}
{"Biopolymer Sequence": "CUGAAGCAAUAUUACGAGAU", "self-splicing fitness (ln)": -2.63}
{"Biopolymer Sequence": "UACCAGCAAUAUUACGGCAG", "self-splicing fitness (ln)": -0.582}
{"Biopolymer Sequence": "UACCAGCAAUAUUACGUUAG", "self-splicing fitness (ln)": -1.18}
{"Biopolymer Sequence": "ACGUAGCAAUAUUACGUAGA", "self-splicing fitness (ln)": -3.58}
{"Biopolymer Sequence": "UUCCAGCAAUAUUACGGGCU", "self-splicing fitness (ln)": -4.67}
{"Biopolymer Sequence": "ACACAGCAAUAUUACGUGGA", "self-splicing fitness (ln)": -2.25}
{"Biopolymer Sequence": "UGGUAGCAAUAUUACGACUC", "self-splicing fitness (ln)": -0.656}
{"Biopolymer Sequence": "AGUCAGCAAUAUUACGAACU", "self-splicing fitness (ln)": -0.853}
{"Biopolymer Sequence": "GUAUAGCAAUAUUACGACUC", "self-splicing fitness (ln)": -0.23}
{"Biopolymer Sequence": "GUGAAGCAAUAUUACGGUUG", "self-splicing fitness (ln)": -1.71}
{"Biopolymer Sequence": "UCCGAGCAAUAUUACGUCUA", "self-splicing fitness (ln)": -3.11}
{"Biopolymer Sequence": "UUCCAGCAAUAUUACGGAAG", "self-splicing fitness (ln)": -2.85}
{"Biopolymer Sequence": "CUGAAGCAAUAUUACGAAAU", "self-splicing fitness (ln)": -3.78}
{"Biopolymer Sequence": "UCUAAGCAAUAUUACGGAAG", "self-splicing fitness (ln)": -4.81}
{"Biopolymer Sequence": "CACCAGCAAUAUUACGACAA", "self-splicing fitness (ln)": -2.61}
{"Biopolymer Sequence": "AUAAAGCAAUAUUACGAGUU", "self-splicing fitness (ln)": -1.9}
{"Biopolymer Sequence": "UCCCAGCAAUAUUACGAUUG", "self-splicing fitness (ln)": -3.56}
{"Biopolymer Sequence": "ACGUAGCAAUAUUACGAUUA", "self-splicing fitness (ln)": -0.625}
{"Biopolymer Sequence": "CCGCAGCAAUAUUACGAAAG", "self-splicing fitness (ln)": -0.925}
{"Biopolymer Sequence": "CGCAAGCAAUAUUACGGAUC", "self-splicing fitness (ln)": -2}
{"Biopolymer Sequence": "GCACAGCAAUAUUACGGAUG", "self-splicing fitness (ln)": -2.18}
{"Biopolymer Sequence": "GUCGAGCAAUAUUACGUACA", "self-splicing fitness (ln)": -1.02}
{"Biopolymer Sequence": "AAGAAGCAAUAUUACGCAAC", "self-splicing fitness (ln)": -1.53}
